Biological target: androgen receptor (Homo sapiens, UniProt P10275)
Sequence (P10275 1-920): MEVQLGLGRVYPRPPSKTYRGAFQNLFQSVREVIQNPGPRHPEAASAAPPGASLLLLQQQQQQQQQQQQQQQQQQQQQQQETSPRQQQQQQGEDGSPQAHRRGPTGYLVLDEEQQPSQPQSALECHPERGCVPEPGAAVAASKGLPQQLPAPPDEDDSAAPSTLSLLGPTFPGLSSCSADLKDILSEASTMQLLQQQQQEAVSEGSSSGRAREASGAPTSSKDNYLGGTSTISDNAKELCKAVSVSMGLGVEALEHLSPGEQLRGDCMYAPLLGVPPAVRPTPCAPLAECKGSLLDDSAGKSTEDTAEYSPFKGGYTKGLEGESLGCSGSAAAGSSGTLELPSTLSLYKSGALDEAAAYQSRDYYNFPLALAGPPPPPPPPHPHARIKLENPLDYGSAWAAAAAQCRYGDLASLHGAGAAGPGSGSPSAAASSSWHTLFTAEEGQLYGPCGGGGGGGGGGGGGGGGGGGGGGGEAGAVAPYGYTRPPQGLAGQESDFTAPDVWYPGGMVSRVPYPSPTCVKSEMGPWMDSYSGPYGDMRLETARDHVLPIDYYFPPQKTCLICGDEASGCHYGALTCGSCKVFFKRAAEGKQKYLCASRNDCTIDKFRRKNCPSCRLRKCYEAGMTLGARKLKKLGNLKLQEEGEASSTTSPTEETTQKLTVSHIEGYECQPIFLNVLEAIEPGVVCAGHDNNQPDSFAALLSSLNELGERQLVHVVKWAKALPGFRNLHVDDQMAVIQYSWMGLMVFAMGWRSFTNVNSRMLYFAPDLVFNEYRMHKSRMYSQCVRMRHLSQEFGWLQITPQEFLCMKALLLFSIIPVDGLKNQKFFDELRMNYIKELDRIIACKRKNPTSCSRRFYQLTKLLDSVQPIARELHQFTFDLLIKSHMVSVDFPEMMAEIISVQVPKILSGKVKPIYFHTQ
For each record, write down the corresponding Ki.
Give bare numbers, in nM.

| MOLECULE | OBSERVED |
| --- | --- |
| C[C@]12CCC3=C(CC[C@H]4CC(=O)CC[C@]34C)[C@@]13C[C@H]3[C@@H](O)C2 [Compound 202] | 837 |

Bench note: what Ki did C[C@]12CCC(=O)C=C1CCC1=C2CC[C@]2(C)C[C@H](O)[C@@H]3C[C@@]132 [Compound 201] show?
1400

* * *

Molecular target: human AR (Homo sapiens)
Construct: purchased Indigo Biosciences
Test: human AR antagonist assay (Indigo Biosciences)
Format: cell-based
Conditions: Table A; values match the human AR antagonist assay
MEASURE_NAME: IC50 (nM)
Numbers only, in nM.

Worked cases, IC50 given:
| QUERY_SMILES | IC50, nM |
| --- | --- |
| C[C@]12CCC(=O)C=C1CCC1=C2CC[C@]2(C)C[C@H](O)[C@@H]3C[C@@]132 | 218 |
| C[C@]12CCC3=C(CC[C@H]4CC(=O)CC[C@]34C)[C@@]13C[C@H]3[C@@H](O)C2 | 61 |
| C[C@]12CCC3=C(CC[C@@H]4CC(=O)CC[C@]34C)[C@@]13C[C@H]3[C@@H](O)C2 | 1180 |
| C[C@]12CC[C@@]3(C)C(=C1C[C@@H](O)C2)CC[C@H]1CC(=O)CC[C@@H]13 | 1800 |

Bench note: what IC50 did C[C@]12CC[C@@]3(C)C(=C1C[C@H](O)C2)CC[C@H]1CC(=O)CC[C@@H]13 show?
6800

* * *

Molecular target: human AR (Homo sapiens, UniProt P10275)
Construct: purchased Indigo Biosciences
Experiment: human AR antagonist assay (Indigo Biosciences)
Assay type: cell-based
Details: Table 4, antagonist mode
MEASURE_NAME: HillSlope
Numbers only.

Worked cases, HillSlope given:
| COMPOUND | TARGET_OF_ASSAY | HillSlope |
| --- | --- | --- |
| C[C@]12CCC(=O)C=C1CCC1=C2CC[C@]2(C)C[C@H](O)[C@@H]3C[C@@]132 | human AR (Homo sapiens, UniProt P10275) | 1.375 |
| CC(C)(O)C(=O)Nc1ccc([N+](=O)[O-])c(C(F)(F)F)c1 [hydroxyflutamide, reference compound] | human AR (Homo sapiens, UniProt P10275) | 1.282 |
| C[C@]12CCC3=C(CC[C@@H]4CC(=O)CC[C@]34C)[C@@]13C[C@H]3[C@@H](O)C2 | human AR (Homo sapiens, UniProt P10275) | 1.202 |

Lab note: next compound to report on.
Bench note: what HillSlope did C[C@]12CCC3=C(CC[C@H]4CC(=O)CC[C@]34C)[C@@]13C[C@H]3[C@@H](O)C2 show?
1.360

* * *

Biological target: human AR (Homo sapiens, UniProt P10275)
Construct: purchased Indigo Biosciences
Experiment: human AR antagonist assay (Indigo Biosciences)
Type: cell-based
Conditions: Table 4, antagonist mode
For each record, write down the corresponding pIC50.
Give bare numbers, as −log10 of the molar value.

| COMPOUND | TARGET_OF_ASSAY | pIC50 |
| --- | --- | --- |
| C[C@]12CCC3=C(CC[C@H]4CC(=O)CC[C@]34C)[C@@]13C[C@H]3[C@@H](O)C2 [Compound 202] | human AR (Homo sapiens, UniProt P10275) | 7.22 |

Lab note: next compound to report on.
Bench note: what pIC50 did C[C@]12CCC3=C(CC[C@@H]4CC(=O)CC[C@]34C)[C@@]13C[C@H]3[C@@H](O)C2 [Compound 203] show?
5.93
